# study-system: integrin α4β7 (RPMI8866 human cells adhering to MAdCAM-1) (Homo sapiens, UniProt P13612+P26010)
# Construct: RMP18866 cells, which express integrin α4β7; host or cells: RPMI8866
# Sequence (P13612 34-1032): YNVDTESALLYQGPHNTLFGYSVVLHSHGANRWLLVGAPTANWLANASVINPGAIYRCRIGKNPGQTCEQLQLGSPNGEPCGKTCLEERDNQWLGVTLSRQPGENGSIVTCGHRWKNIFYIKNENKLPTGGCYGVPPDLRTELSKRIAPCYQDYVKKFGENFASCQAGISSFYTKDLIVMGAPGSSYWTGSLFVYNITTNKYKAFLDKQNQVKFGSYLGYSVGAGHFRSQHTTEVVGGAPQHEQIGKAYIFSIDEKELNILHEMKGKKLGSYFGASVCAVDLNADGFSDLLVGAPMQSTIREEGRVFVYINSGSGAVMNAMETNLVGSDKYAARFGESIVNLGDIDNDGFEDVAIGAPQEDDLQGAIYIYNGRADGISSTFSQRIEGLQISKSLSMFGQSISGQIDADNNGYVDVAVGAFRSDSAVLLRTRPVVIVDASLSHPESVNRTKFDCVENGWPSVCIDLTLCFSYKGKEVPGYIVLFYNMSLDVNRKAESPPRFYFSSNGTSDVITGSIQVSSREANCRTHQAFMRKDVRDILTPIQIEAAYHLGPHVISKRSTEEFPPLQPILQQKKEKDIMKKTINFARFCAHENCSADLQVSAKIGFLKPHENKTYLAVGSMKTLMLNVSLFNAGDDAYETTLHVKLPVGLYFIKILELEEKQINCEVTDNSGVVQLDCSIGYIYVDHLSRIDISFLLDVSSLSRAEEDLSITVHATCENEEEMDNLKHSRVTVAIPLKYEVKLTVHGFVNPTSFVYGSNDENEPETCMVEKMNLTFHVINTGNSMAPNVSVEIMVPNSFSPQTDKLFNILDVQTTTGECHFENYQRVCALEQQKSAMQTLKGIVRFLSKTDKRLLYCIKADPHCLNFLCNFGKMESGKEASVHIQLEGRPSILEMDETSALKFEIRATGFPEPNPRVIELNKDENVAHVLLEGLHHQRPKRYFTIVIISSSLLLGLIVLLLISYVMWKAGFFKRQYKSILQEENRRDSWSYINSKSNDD
# Sequence (P26010 20-798): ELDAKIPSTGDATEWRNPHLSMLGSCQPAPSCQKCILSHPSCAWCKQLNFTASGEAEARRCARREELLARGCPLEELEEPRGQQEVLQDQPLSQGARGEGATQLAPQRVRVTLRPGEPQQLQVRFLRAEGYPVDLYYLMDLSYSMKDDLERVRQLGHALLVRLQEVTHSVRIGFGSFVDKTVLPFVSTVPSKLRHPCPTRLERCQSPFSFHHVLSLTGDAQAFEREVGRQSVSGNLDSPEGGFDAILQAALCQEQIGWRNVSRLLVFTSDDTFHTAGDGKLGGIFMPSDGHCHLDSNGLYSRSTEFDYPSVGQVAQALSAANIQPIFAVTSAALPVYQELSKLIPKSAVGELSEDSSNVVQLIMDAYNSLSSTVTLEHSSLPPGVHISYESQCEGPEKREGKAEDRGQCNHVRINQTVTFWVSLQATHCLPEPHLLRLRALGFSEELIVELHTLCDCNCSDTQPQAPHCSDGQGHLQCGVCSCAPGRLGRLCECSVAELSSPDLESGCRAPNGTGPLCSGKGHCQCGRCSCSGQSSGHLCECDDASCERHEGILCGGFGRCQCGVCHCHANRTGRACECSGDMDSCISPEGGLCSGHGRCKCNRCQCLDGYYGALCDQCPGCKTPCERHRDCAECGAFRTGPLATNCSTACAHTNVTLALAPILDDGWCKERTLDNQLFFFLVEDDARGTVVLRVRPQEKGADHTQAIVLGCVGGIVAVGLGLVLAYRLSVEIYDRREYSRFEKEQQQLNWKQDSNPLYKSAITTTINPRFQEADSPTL
# assay-comment: Integrin α4β7-MAdCAM cell adhesion assay (RPMI8866 cells)
# Format: cell-based
# protocol-conditions: RPMI8866 cells adhering to MAdCAM; read-out: RPMI8866 Adhesion α4β7/MAdCAM IC50
endpoint-label: pIC50
# pIC50 is unitless: minus log10 of the molar concentration; print number only

Need pIC50 of CC(C)C[C@@H]1NC(=O)c2ccc(-c3ccc(N4CCN(Cc5ccc(CN6CCN(c7ccc(-c8ccc9cc8CNC(=O)[C@@H]8CCCN8[C@H](C(=O)NC(C)(C)C)[C@H](C)NC(=O)[C@H]([C@@H](C)O)NC(=O)[C@H](CC(=O)O)NC(=O)[C@H](CC(C)C)NC9=O)cc7)CC6)cc5)CC4)cc3)c(c2)CNC(=O)[C@@H]2CCCN2[C@H](C(=O)NC(C)(C)C)[C@H](C)NC(=O)[C@H]([C@@H](C)O)NC(=O)[C@H](CC(=O)O)NC1=O , thanks.
7.49

Queued: CC(C)C[C@@H]1NC(=O)c2ccc(-c3ccc(N4CCN(C(=O)C[C@H](N)C(=O)N5CCN(c6ccc(-c7ccc8cc7CNC(=O)[C@@H]7CCCN7[C@H](C(=O)NC(C)(C)C)[C@H](C)NC(=O)[C@H]([C@@H](C)O)NC(=O)[C@H](CC(=O)O)NC(=O)[C@H](CC(C)C)NC8=O)cc6)CC5)CC4)cc3)c(c2)CNC(=O)[C@@H]2CCCN2[C@H](C(=O)NC(C)(C)C)[C@H](C)NC(=O)[C@H]([C@@H](C)O)NC(=O)[C@H](CC(=O)O)NC1=O
7.60

Now the compound CC(C)C[C@@H]1NC(=O)c2ccc(-c3ccc(N4CCN(C(=O)C[C@@H](N)C(=O)N5CCN(c6ccc(-c7ccc8cc7CNC(=O)[C@@H]7CCCN7[C@H](C(=O)NC(C)(C)C)[C@H](C)NC(=O)[C@H]([C@@H](C)O)NC(=O)[C@H](CC(=O)O)NC(=O)[C@H](CC(C)C)NC8=O)cc6)CC5)CC4)cc3)c(c2)CNC(=O)[C@@H]2CCCN2[C@H](C(=O)NC(C)(C)C)[C@H](C)NC(=O)[C@H]([C@@H](C)O)NC(=O)[C@H](CC(=O)O)NC1=O
7.35

Continue with CC(C)C[C@@H]1NC(=O)c2ccc(-c3ccc(N4CCN(c5ncc([N+](=O)[O-])c(N6CCN(c7ccc(-c8ccc9cc8CNC(=O)[C@@H]8CCCN8[C@H](C(=O)NC(C)(C)C)[C@H](C)NC(=O)[C@H]([C@@H](C)O)NC(=O)[C@H](CC(=O)O)NC(=O)[C@H](CC(C)C)NC9=O)cc7)CC6)n5)CC4)cc3)c(c2)CNC(=O)[C@@H]2CCCN2[C@H](C(=O)NC(C)(C)C)[C@H](C)NC(=O)[C@H]([C@@H](C)O)NC(=O)[C@H](CC(=O)O)NC1=O
7.89

* * *

# study-system: recombinant integrin α4β7 (Homo sapiens, UniProt P13612+P26010, DEL724-798)
# Construct: purchased R&D Systems 5397-A3-050
# Sequence (P13612 34-970 limits assumed, stated change not applied): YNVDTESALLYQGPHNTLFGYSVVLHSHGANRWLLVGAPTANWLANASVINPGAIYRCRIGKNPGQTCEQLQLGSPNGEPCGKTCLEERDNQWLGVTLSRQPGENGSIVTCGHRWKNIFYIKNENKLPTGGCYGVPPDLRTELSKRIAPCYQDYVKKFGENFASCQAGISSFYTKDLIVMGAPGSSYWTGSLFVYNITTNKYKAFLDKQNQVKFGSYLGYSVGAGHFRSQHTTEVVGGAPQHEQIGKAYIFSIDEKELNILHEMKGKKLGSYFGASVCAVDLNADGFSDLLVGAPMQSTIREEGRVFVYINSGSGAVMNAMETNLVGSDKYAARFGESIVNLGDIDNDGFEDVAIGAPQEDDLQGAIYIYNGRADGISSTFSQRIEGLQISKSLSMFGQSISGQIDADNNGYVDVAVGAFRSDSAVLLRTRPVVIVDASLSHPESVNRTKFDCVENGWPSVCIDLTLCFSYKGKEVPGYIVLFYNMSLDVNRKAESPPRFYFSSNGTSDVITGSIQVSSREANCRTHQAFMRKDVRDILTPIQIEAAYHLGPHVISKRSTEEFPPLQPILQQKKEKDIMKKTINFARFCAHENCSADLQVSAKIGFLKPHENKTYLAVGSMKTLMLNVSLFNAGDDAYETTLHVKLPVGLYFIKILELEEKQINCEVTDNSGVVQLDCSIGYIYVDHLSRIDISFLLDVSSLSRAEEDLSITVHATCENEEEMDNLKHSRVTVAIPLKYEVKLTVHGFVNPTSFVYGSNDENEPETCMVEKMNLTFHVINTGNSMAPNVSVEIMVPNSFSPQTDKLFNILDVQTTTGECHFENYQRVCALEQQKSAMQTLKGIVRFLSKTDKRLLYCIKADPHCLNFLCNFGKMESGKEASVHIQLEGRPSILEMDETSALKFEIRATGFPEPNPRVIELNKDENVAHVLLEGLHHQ
# Sequence (P26010 20-723 limits assumed, stated change not applied): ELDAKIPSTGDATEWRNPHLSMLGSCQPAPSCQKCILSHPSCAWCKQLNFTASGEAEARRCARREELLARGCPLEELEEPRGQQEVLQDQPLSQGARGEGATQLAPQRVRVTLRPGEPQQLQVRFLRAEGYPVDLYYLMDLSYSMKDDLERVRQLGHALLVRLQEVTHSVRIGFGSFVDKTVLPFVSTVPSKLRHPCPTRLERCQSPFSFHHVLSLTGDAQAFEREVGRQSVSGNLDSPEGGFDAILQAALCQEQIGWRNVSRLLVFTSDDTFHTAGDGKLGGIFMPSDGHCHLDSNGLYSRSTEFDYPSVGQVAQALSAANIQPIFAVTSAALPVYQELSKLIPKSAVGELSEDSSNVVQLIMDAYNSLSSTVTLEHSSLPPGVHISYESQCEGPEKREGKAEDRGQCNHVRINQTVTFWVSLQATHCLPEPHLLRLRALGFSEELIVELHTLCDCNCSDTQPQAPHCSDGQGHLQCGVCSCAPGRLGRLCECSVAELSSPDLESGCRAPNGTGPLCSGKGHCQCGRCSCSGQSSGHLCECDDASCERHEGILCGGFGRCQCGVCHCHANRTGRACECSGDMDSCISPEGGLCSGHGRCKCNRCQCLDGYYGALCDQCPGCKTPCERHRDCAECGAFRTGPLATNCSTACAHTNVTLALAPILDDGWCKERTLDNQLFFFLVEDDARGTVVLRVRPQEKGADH
# assay-comment: Integrin α4β7—MAdCAM-1 ELISA competition assay
# Assay type: binding
# protocol-conditions: read-out: ELISA a4b7 Assay IC50
pIC50: −log10 of the molar value.
Given measured pIC50, output 1 if it is greater than or equal to 7 and 0 if not.

Given the entry CC(C)C[C@@H]1NC(=O)[C@H]2C[C@@H](O)CN2C(=O)[C@H](Cc2ccc(O)cc2)NC(=O)[C@@H]2CCCN2[C@H](C(=O)NC(C)(C)C)[C@H](C)NC(=O)[C@H]([C@@H](C)O)NC(=O)[C@H](CC(=O)O)NC1=O [Compound 141] , answer whether its pIC50 meets or surpasses 7.
1

Moving on to CC(C)C[C@@H]1NC(=O)[C@H]2CCCCN2C(=O)[C@H](Cc2cscn2)NC(=O)[C@@H]2CCCN2[C@H](C(=O)NC(C)(C)C)[C@H](C)NC(=O)[C@H]([C@@H](C)O)NC(=O)[C@H](CC(=O)O)NC1=O [Compound 131]
1

Also check CC(C)C[C@@H]1NC(=O)C[C@H](CCCCN)NC[C@H](Cc2ccc(CN)cc2)NC(=O)[C@@H]2CCCN2[C@H](C(=O)NC(C)(C)C)[C@H](C)NC(=O)[C@H]([C@@H](C)O)NC(=O)[C@H](CC(=O)O)NC1=O [Compound 218]
0

Lookup CC(C)C[C@@H]1NC(=O)[C@H]2CCCN2C(=O)[C@H](Cc2cc(F)c(F)c(F)c2)NC(=O)[C@@H]2CCCN2[C@H](C(=O)NC(C)(C)C)[C@H](C)NC(=O)[C@H]([C@@H](C)O)NC(=O)[C@H](CC(=O)O)NC1=O [Compound 128]
1

* * *

# study-system: integrin α4β7 on α4β7+ memory T helper cells (Homo sapiens, UniProt P13612+P26010)
# Construct: endogenous in cells
# Sequence (P13612 34-1032): as the sequence (P13612 34-1032) above
# Sequence (P26010 20-798): as the sequence (P26010 20-798) above
# assay-comment: MAdCAM-1 competition / receptor occupancy assay in human whole blood, α4β7-positive Th memory cells
# Format: cell-based
# protocol-conditions: human whole blood, inhibition of MAdCAM-1 binding to α4β7-positive Th memory cells, FACS; read-out: MADCAM FACS α4β7 Th mem
# Description: Analyte Competition Assay in CD4+ Integrin α4+β7-Lo Memory T Cells Receptor occupancy in primary cells was determined by measuring the amount of biotinylated human recombinant MAdCAM-1-FC or human recombinant VCAM-1-Fc bound to selected cell populations using flow cytometry. […] Receptor occupancy was calculated with the following equation: 100−((% ligand-positive cells with compound/% ligand-positive cells DMSO)*100) In Vivo T Lymphocyte Trafficking Analysis in Mouse Model of Colitis
endpoint-label: IC50 (nM)
All answers are understood in nM, so give the number only.

Value lookup for IC50; key = CC(C)C[C@@H]1NC(=O)c2ccc(-c3ccc(N4CCN(CC(=O)N5CCN(c6ccc(-c7ccc8cc7CNC(=O)[C@@H]7CCCN7[C@H](C(=O)NC(C)(C)C)[C@H](C)NC(=O)[C@H]([C@@H](C)O)NC(=O)[C@H](CC(=O)O)NC(=O)[C@H](CC(C)C)NC8=O)cc6)CC5)CC4)cc3)c(c2)CNC(=O)[C@@H]2CCCN2[C@H](C(=O)NC(C)(C)C)[C@H](C)NC(=O)[C@H]([C@@H](C)O)NC(=O)[C@H](CC(=O)O)NC1=O
67

Then what about the compound CC(C)C[C@@H]1NC(=O)c2ccc(-c3ccc(N4CCN(C(=O)C[C@@H](N)C(=O)N5CCN(c6ccc(-c7ccc8cc7CNC(=O)[C@@H]7CCCN7[C@H](C(=O)NC(C)(C)C)[C@H](C)NC(=O)[C@H]([C@@H](C)O)NC(=O)[C@H](CC(=O)O)NC(=O)[C@H](CC(C)C)NC8=O)cc6)CC5)CC4)cc3)c(c2)CNC(=O)[C@@H]2CCCN2[C@H](C(=O)NC(C)(C)C)[C@H](C)NC(=O)[C@H]([C@@H](C)O)NC(=O)[C@H](CC(=O)O)NC1=O ?
94

Cool, now CC(C)C[C@@H]1NC(=O)c2ccc(-c3ccc(N4CCN(C(=O)c5cc(C(=O)N6CCN(c7ccc(-c8ccc9cc8CNC(=O)[C@@H]8CCCN8[C@H](C(=O)NC(C)(C)C)[C@H](C)NC(=O)[C@H]([C@@H](C)O)NC(=O)[C@H](CC(=O)O)NC(=O)[C@H](CC(C)C)NC9=O)cc7)CC6)cc(C(F)(F)F)c5)CC4)cc3)c(c2)CNC(=O)[C@@H]2CCCN2[C@H](C(=O)NC(C)(C)C)[C@H](C)NC(=O)[C@H]([C@@H](C)O)NC(=O)[C@H](CC(=O)O)NC1=O
124

* * *

Give measured IC50 for each item. Keep answers brief.
# study-system: recombinant integrin α4β7 (Homo sapiens, UniProt P13612+P26010, DEL724-798)
# Construct: purchased R&D Systems 5397-A3-050
# assay-comment: Integrin α4β7—MAdCAM-1 ELISA competition assay
# Assay type: binding
# protocol-conditions: read-out: ELISA α4β7 Assay IC50
Give just the number in nM; leave the unit off.

For CC(C)C[C@@H]1NC(=O)c2ccc(-c3ccc(N4CCN(C(=O)c5nccnc5C(=O)N5CCN(c6ccc(-c7ccc8cc7CNC(=O)[C@@H]7CCCN7[C@H](C(=O)NC(C)(C)C)[C@H](C)NC(=O)[C@H]([C@@H](C)O)NC(=O)[C@H](CC(=O)O)NC(=O)[C@H](CC(C)C)NC8=O)cc6)CC5)CC4)cc3)c(c2)CNC(=O)[C@@H]2CCCN2[C@H](C(=O)NC(C)(C)C)[C@H](C)NC(=O)[C@H]([C@@H](C)O)NC(=O)[C@H](CC(=O)O)NC1=O , what is its reported IC50?
8.6

What do you get for CC(C)C[C@@H]1NC(=O)c2ccc(-c3ccc(N4CCN(C(=O)[C@H]5CCC[C@H]5C(=O)N5CCN(c6ccc(-c7ccc8cc7CNC(=O)[C@@H]7CCCN7[C@H](C(=O)NC(C)(C)C)[C@H](C)NC(=O)[C@H]([C@@H](C)O)NC(=O)[C@H](CC(=O)O)NC(=O)[C@H](CC(C)C)NC8=O)cc6)CC5)CC4)cc3)c(c2)CNC(=O)[C@@H]2CCCN2[C@H](C(=O)NC(C)(C)C)[C@H](C)NC(=O)[C@H]([C@@H](C)O)NC(=O)[C@H](CC(=O)O)NC1=O ?
6.4

Likewise for CC(C)C[C@@H]1NC(=O)c2ccc(-c3ccc(N4CCN(C(=O)C[C@@H](N)C(=O)N5CCN(c6ccc(-c7ccc8cc7CNC(=O)[C@@H]7CCCN7[C@H](C(=O)NC(C)(C)C)[C@H](C)NC(=O)[C@H]([C@@H](C)O)NC(=O)[C@H](CC(=O)O)NC(=O)[C@H](CC(C)C)NC8=O)cc6)CC5)CC4)cc3)c(c2)CNC(=O)[C@@H]2CCCN2[C@H](C(=O)NC(C)(C)C)[C@H](C)NC(=O)[C@H]([C@@H](C)O)NC(=O)[C@H](CC(=O)O)NC1=O ?
12
